- target: GluN1-1a WT/GluN2B F176Y (Rattus norvegicus, UniProt P35439+Q00960, F176Y)
- Sequence (Q00960 27-1482 F176Y, other chains not shown): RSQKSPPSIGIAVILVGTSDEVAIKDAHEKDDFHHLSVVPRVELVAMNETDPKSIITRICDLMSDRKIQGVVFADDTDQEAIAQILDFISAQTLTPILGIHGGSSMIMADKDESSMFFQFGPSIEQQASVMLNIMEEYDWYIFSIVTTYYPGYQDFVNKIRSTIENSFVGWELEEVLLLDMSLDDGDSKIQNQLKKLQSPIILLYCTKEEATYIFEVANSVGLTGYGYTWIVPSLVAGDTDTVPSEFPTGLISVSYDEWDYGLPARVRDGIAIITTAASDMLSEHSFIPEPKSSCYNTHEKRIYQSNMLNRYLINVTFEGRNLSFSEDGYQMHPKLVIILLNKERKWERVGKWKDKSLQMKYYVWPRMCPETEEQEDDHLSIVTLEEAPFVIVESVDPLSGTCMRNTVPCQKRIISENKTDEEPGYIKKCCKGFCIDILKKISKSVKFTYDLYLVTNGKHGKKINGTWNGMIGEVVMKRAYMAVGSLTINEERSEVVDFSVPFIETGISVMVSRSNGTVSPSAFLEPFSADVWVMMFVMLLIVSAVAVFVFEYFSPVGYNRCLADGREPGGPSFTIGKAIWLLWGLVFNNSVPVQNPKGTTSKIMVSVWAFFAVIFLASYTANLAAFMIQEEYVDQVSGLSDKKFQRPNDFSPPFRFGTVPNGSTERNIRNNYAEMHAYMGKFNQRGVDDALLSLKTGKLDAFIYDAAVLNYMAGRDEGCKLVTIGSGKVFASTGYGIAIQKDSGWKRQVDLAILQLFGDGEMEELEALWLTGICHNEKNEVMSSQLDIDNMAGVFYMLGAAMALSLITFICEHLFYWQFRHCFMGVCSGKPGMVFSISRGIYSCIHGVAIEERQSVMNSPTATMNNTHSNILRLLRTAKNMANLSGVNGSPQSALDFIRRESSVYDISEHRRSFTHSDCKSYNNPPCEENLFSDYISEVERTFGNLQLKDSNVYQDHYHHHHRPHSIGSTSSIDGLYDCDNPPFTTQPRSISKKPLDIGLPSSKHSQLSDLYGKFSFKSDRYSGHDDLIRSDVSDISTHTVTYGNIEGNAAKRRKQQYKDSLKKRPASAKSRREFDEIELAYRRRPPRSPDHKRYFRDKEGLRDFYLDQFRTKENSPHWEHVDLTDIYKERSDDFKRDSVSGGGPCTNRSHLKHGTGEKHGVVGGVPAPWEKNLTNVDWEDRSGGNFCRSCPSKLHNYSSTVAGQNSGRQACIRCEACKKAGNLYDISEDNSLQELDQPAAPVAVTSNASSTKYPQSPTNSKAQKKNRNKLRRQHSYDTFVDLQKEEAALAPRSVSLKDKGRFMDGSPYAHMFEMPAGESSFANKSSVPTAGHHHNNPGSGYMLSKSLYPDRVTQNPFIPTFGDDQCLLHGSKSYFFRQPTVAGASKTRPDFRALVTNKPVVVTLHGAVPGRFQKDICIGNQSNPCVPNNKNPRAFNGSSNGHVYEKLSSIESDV
- condition summary: GluN2B F176Y
reported property: p (slope)
API note: the answer field is a bare number with no unit suffix.

[
  {
    "compound": "CC(C(O)c1ccc(O)cc1)N1CCC(Cc2ccccc2)CC1 (stereo not shown) [ifenprodil, reference compound]",
    "obs value": 0.57
  },
  {
    "compound": "C[C@@H]1[C@H](O)c2ccc(O)cc2CCN1CCCCc1ccccc1 [compound 2]",
    "obs value": 1.00
  },
  {
    "compound": "Oc1ccc2c(c1)CCN(CCCCc1ccccc1)C[C@@H]2O [compound (R)-1]",
    "obs value": 0.82
  }
]

Please look at the following compound next.
Measured p (slope) for this entry Oc1ccc2c(c1)CCN(CCCCc1ccccc1)C[C@H]2O [compound (S)-1] on GluN1-1a WT/GluN2B F176Y (Rattus norvegicus, UniProt P35439+Q00960, F176Y): 0.82
